Each recorded value in this set is attributed to ChEMBL document CHEMBL4351008.

Listing: IC50 of selected compounds
System: MDA-MB-231
assay overview: Antiproliferative activity against human MDA-MB-231 cells incubated for 48 hrs by MTT assay
Format: functional, cell-based
run parameters: MDA-MB-231, 48 h

>  <smiles repr>
Cc1cnc(Nc2cccc(F)c2)nc1Nc1nc2ccccc2s1

>  <assay target>
MDA-MB-231

>  <IC50>
> 50 µM

$$$$
>  <smiles repr>
Cc1cnc(Nc2ccc(S(C)(=O)=O)cc2)nc1Nc1nc2ccc(F)cc2s1

>  <assay target>
MDA-MB-231

>  <IC50>
> 50 µM

$$$$

Now consider a different compound.
I'm curious: which IC50 was measured for "COc1ccc2nc(Nc3nc(Nc4ccc(S(N)(=O)=O)cc4)ncc3C)sc2c1" tested on MDA-MB-231?
> 50 µM

###

Test system: PC-3
assay overview: Antiproliferative activity against human PC3 cells incubated for 48 hrs by MTT assay
Format: functional, cell-based
run parameters: PC-3, 48 h
measured quantity: IC50 (µM)
Report only the number, with the unit µM understood.

Example entries begin here.
>  <smiles repr>
Cc1ccc2nc(Nc3nc(Nc4ccc(S(N)(=O)=O)cc4)ncc3F)sc2c1

>  <IC50 / µM>
4.96

$$$$
>  <smiles repr>
Cc1cnc(Nc2ccc(S(N)(=O)=O)cc2)nc1Nc1nc2ccc(Cl)cc2s1

>  <IC50 / µM>
5.4

$$$$
>  <smiles repr>
Cc1ncc(-c2ccnc(Nc3ccc(S(C)(=O)=O)cc3)n2)n1C(C)C

>  <IC50 / µM>
0.36

$$$$
>  <smiles repr>
Cc1cnc(Nc2ccc(S(C)(=O)=O)cc2)nc1Nc1nc2ccc(Cl)cc2s1

>  <IC50 / µM>
13.4

$$$$
>  <smiles repr>
CS(=O)(=O)c1ccc(Nc2nccc(Nc3nc4ccc(F)cc4s3)n2)cc1

>  <IC50 / µM>
1.94

$$$$

Checklist item: IC50 tested on PC-3, entry "COc1ccc2nc(Nc3ccnc(Nc4ccc(S(C)(=O)=O)cc4)n3)sc2c1" , value?
2.7

Request - read-out IC50 | tested on PC-3 | compound "COc1ccc2nc(Nc3ccnc(Nc4ccc(S(N)(=O)=O)cc4)n3)sc2c1"
3.03

// fetch PC-3 IC50 for "NS(=O)(=O)c1ccc(Nc2nccc(Nc3nc4ccccc4s3)n2)cc1"
3.1
